melting point listing for selected compounds.
Write the number in °C without appending the unit.

{"compound-string": "COc1c(C2CCN(CCCCNC(=O)c3sc(-c4ccc(C#N)cc4)nc3CO)CC2)ccc2c1CCCC2", "endpoint-name": "melting point", "unit-text": "°C", "recorded-value": 212}
{"compound-string": "COc1c(C2CCN(CCCCNC(=O)c3ccc(-c4cnc(C#N)nc4)cc3)CC2)ccc2c1CCCC2", "endpoint-name": "melting point", "unit-text": "°C", "recorded-value": 202}

In the following, a different compound is considered.
[ask] // melting point lookup, key: COc1c(C2CCN(CCCCNC(=O)c3ccc(-c4ccc(Cl)cc4)c(O)c3)CC2)ccc2c1CCCC2
[reply] 199

====

Below, each entry is listed alongside its reported melting point.

{"compound-string": "COc1c(C2CCN(CCCCNC(=O)c3ccc(-c4ccc(Cl)nn4)cc3)CC2)ccc2c1CCCC2", "recorded-value": "192 to 194 °C"}

[ask] Would you kindly share the measured melting point for COc1c(C2CCN(CCCCNC(=O)c3oc(-c4ccc(C#N)cc4)nc3CO)CC2)ccc2c1CCCC2 ?
[reply] 160 to 162 °C

[ask] Item under review: COc1c(C2CCN(CCCCNC(=O)c3ccc(-c4ccc(Cl)s4)cc3)CC2)ccc2c1CCCC2 . Reported melting point?
[reply] 185 to 187 °C

[ask] For the compound shown here, COc1c(C2CCN(CCCCNC(=O)c3ccc(-c4csc(C(C)=O)c4)cc3)CC2)ccc2c1CCCC2 , give the reported melting point.
[reply] 208 to 210 °C

====

Reported melting point values are given for each entry in this list.

Solved cases (3 shown):
{"compound-string": "COc1c(C2CCN(CCCCNC(=O)c3ccc(-c4ccc(Cl)nc4)cc3)CC2)ccc2c1CCCC2", "melting point": "202 to 204 °C"}
{"compound-string": "COc1c(C2CCN(CCCCNC(=O)c3ccc(-c4ccc(NS(=O)(=O)CC(F)(F)F)cc4)cc3)CC2)ccc2c1CCCC2", "melting point": "182 to 184 °C"}
{"compound-string": "COc1c(C2CCN(CCCCNC(=O)c3ccc(-c4ccc(Cl)cn4)cc3)CC2)ccc2c1CCCC2", "melting point": "213 to 215 °C"}

Here's the next entry for you.
[ask] Can you look up the measured melting point of COc1c(C2CCN(CCCCNC(=O)c3ccc(-c4ccc(Cl)cc4)nc3)CC2)ccc2c1CCCC2 for me?
[reply] 184 to 186 °C

====

Collected pEC50 values appear next to each entry.
Test system: LDL-r promoter and the luciferase reporter gene in HepG2 cells
experiment-notes: In vitro assay: induction of luciferase activity in HepG2 cells stably transfected with LDL-r promoter/luciferase reporter construct
Format: cell-based
condition-summary: Homo sapiens, 24 hours incubation, RPMI medium with 2% lipoprotein-deficient serum, tested 10^-6M to 10^-9M
Conceptually, pEC50 converts a concentration in mol/L into minus its log10.

{"compound-string": "Cn1cc(C2CCN(CCCCNC(=O)c3ccc(-c4ccc(C(F)(F)F)cc4)c(CO)c3)CC2)c2ccccc21", "recorded-value": 8.15}

[ask] For COc1c(C2CCN(CCCCNC(=O)c3ccc(-c4ccc(Cl)cn4)cc3)CC2)ccc2c1CCCC2 , what is its reported pEC50?
[reply] 8.00

====

Consider the following compounds and their measured melting point readings.

{"compound": "COc1c(C2CCN(CCCCNC(=O)c3ccc(-c4ccc(C#N)s4)nc3)CC2)ccc2c1CCCC2 [Example 42]", "endpoint-name": "melting point", "recorded-value": "186 to 188 °C"}
{"compound": "COc1c(C2CCN(CCCCNC(=O)c3ccc(-c4ccc(NC(=O)C(F)(F)F)cc4)cc3)CC2)ccc2c1CCCC2 [Example 29]", "endpoint-name": "melting point", "recorded-value": "226 to 228 °C"}
{"compound": "COc1c(C2CCN(CCCCNC(=O)c3ccc(-c4ccc(Cl)cc4)cn3)CC2)ccc2c1CCCC2 [Example 37]", "endpoint-name": "melting point", "recorded-value": "103 to 105 °C"}
{"compound": "COc1c(C2CCN(CCCCNC(=O)c3ccc(-c4ccc(C#N)cc4)nc3)CC2)ccc2c1CCCC2 [Example 39]", "endpoint-name": "melting point", "recorded-value": "166 to 168 °C"}
{"compound": "COc1c(C2CCN(CCCCNC(=O)c3[nH]nc(-c4ccc(C#N)cc4)c3CO)CC2)ccc2c1CCCC2 [Example 14]", "endpoint-name": "melting point", "recorded-value": "185 to 186 °C"}

# context switch: different compound, same melting point
[ask] Could you tell me which melting point is on file for COc1c(C2CCN(CCCCNC(=O)c3ccc(-c4ccc(C(=O)N(C)C)cc4)cc3)CC2)ccc2c1CCCC2 [Example 19] ?
[reply] 170 °C

====

melting point overview

Past entries and their recorded results:
{"compound-string": "COc1c(C2CCN(CCCCNC(=O)c3ccc(-c4ccc(NS(=O)(=O)C(C)C)cc4)cc3)CC2)ccc2c1CCCC2", "endpoint-name": "melting point", "recorded-value": "188 to 190 °C"}
{"compound-string": "COc1c(C2CCN(CCCCNC(=O)c3ccc(-c4ccc(C#N)cn4)cc3)CC2)ccc2c1CCCC2", "endpoint-name": "melting point", "recorded-value": "220 to 222 °C"}
{"compound-string": "COc1c(C2CCN(CCCCNC(=O)c3ccc(-c4ccc(C(=O)C(F)(F)F)cc4)cc3)CC2)ccc2c1CCCC2", "endpoint-name": "melting point", "recorded-value": "197 to 199 °C"}

Read the next record carefully.
[ask] // returns reported melting point for input COc1c(C2CCN(CCCCNC(=O)c3ccc(-c4ccc(C(C)=O)s4)cc3)CC2)ccc2c1CCCC2
[reply] 216 to 218 °C

====

endpoint-name: melting point (°C)
Provide only the numeric value, understood in °C.

Completed entries (count: 3):
{"compound-string": "CCOc1cc(CC)ccc1C1CCN(CCCCNC(=O)c2sc(-c3ccc(C(F)(F)F)cc3)nc2CO)CC1", "recorded-value": 150}
{"compound-string": "COc1c(C2CCN(CCCCNC(=O)c3ccc(-c4ccc(C#N)cc4)cn3)CC2)ccc2c1CCCC2", "recorded-value": 140}
{"compound-string": "COc1c(C2CCN(CCCCNC(=O)c3sc(-c4ccc(Cl)cc4)nc3C)CC2)ccc2c1CCCC2", "recorded-value": 151}

Please examine the following record next.
[ask] Could you share which melting point value was measured for COc1c(C2CCN(CCCCNC(=O)c3oc(-c4ccc(C#N)cc4)nc3C)CC2)ccc2c1CCCC2 ?
[reply] 157

====

endpoint-name: melting point

{"compound-string": "COc1c(C2CCN(CCCCNC(=O)c3ccc(-c4ccsc4C#N)cc3)CC2)ccc2c1CCCC2", "melting point": "236 to 238 °C"}
{"compound-string": "COc1c(C2CCN(CCCCNC(=O)c3ccc(-c4ccc(C#N)o4)cc3)CC2)ccc2c1CCCC2", "melting point": "180 to 182 °C"}
{"compound-string": "COc1c(C2CCN(CCCCNC(=O)c3ccc(-c4ccc(C#N)nc4)cc3)CC2)ccc2c1CCCC2", "melting point": "179 to 181 °C"}

Please turn your attention to the following entry.
[ask] For the compound shown here, COc1c(C2CCN(CCCCNC(=O)c3ccc(-c4ccc(Cl)s4)nc3)CC2)ccc2c1CCCC2 , give the reported melting point.
[reply] 175 to 177 °C

Every entry's value here was drawn from patent US20060052384A1.
